study_target: Cav2.2 (Homo sapiens, UniProt Q00975)
Construct: expressed in transfected cells; host or cells: HEK-293T/17 (transient, FuGENE 6)
assay_protocol: HEK assay (whole-cell patch clamp, transiently transfected HEK-293T/17 cells, pulses P1 and P5)
Assay type: cell-based
run_conditions: first pulse (P1) of 5 Hz train, holding potential −100 mV, read-out: HEK Cav2.2 P1 IC50
pIC50: −log10 of the molar value. Where a name gives a salt, the structure may show the parent alone.
assay_endpoint: pIC50

Please review the following examples before continuing.
Give its pIC50 value. Item: COc1ccc(OCc2nc(CN(C(=O)C(C)(C)C)c3ccc(F)cc3)cs2)cc1 [Compound 68]
5.49

Also CN(CCc1cccnc1)c1ccc(CN(C(=O)C(C)(C)C)c2ccc(F)cc2)cn1 [Compound 27] , if possible.
5.34

Moving on to the next compound: CC(C)(C)C(=O)N(Cc1csc(N2CCCCC2)n1)c1ccc(F)cc1 [Compound 2, hydrochloride]
4.77

// next record CC(C)(C)C(=O)N(Cc1ccc(N2CCC(N3CCCC3)CC2)nc1)c1ccc(F)cc1 [Compound 34]
5.26

Next compound up: CCN(CC)c1ncc(CN(C(=O)C(C)(C)C)c2ccc(F)cc2)cn1 [Compound 84]
5.37

P: CCN(c1ccc(CN(C(=O)C(C)(C)C)c2ccc(F)cc2)cc1)C1CC1 [Compound 87]
Q: CC(C)(C)C(=O)N(Cc1csc(N2CCCC2)n1)c1ccc(F)cc1 [Compound 77]
R: CCN(CC)c1ccc(CN(C(=O)/C=C/C(C)C)c2ccc(N(C)C)cc2)cc1 [Compound 94]
S: CCN(CC)c1nc(CN(C(=O)CCC(C)C)c2ccc(N(C)C)cc2)cs1 [Compound 95]
Arrange these compounds by their pIC50, starting with the largest number. Would you mind listing the labels in the order asked for?
R, P, S, Q

---

study_target: UniProt Q02294
assay_protocol: Oocyte assay (Xenopus oocyte heterologous expression, current at fifth pulse P5)
run_conditions: Xenopus oocytes; fifth pulse (P5) of 5 Hz train, holding potential −100 mV
Where a name gives a salt, the structure may show the parent alone.
assay_endpoint: IC50 (µM)

# IC50 lookup, item `CN1CCN(c2ccc(CN(C(=O)C(C)(C)C)c3ccc(F)cc3)cn2)CC1`
41.9

P: CC(C)(C)C(=O)N(Cc1csc(N2CCCCC2)n1)c1ccc(F)cc1 [Compound 2, hydrochloride]
Q: CCN(CC)c1ccc(CN(C(=O)C2CCOCC2)c2ccc(F)cc2)cn1
Could you check which of P and Q has a smaller value for IC50? Record your answer as the label of the chosen record.
P

---

study_target: human Cav2.2 (composed of the subunits α1, β3 and α2δ) (Homo sapiens)
Sequence (Q00975 whole entry): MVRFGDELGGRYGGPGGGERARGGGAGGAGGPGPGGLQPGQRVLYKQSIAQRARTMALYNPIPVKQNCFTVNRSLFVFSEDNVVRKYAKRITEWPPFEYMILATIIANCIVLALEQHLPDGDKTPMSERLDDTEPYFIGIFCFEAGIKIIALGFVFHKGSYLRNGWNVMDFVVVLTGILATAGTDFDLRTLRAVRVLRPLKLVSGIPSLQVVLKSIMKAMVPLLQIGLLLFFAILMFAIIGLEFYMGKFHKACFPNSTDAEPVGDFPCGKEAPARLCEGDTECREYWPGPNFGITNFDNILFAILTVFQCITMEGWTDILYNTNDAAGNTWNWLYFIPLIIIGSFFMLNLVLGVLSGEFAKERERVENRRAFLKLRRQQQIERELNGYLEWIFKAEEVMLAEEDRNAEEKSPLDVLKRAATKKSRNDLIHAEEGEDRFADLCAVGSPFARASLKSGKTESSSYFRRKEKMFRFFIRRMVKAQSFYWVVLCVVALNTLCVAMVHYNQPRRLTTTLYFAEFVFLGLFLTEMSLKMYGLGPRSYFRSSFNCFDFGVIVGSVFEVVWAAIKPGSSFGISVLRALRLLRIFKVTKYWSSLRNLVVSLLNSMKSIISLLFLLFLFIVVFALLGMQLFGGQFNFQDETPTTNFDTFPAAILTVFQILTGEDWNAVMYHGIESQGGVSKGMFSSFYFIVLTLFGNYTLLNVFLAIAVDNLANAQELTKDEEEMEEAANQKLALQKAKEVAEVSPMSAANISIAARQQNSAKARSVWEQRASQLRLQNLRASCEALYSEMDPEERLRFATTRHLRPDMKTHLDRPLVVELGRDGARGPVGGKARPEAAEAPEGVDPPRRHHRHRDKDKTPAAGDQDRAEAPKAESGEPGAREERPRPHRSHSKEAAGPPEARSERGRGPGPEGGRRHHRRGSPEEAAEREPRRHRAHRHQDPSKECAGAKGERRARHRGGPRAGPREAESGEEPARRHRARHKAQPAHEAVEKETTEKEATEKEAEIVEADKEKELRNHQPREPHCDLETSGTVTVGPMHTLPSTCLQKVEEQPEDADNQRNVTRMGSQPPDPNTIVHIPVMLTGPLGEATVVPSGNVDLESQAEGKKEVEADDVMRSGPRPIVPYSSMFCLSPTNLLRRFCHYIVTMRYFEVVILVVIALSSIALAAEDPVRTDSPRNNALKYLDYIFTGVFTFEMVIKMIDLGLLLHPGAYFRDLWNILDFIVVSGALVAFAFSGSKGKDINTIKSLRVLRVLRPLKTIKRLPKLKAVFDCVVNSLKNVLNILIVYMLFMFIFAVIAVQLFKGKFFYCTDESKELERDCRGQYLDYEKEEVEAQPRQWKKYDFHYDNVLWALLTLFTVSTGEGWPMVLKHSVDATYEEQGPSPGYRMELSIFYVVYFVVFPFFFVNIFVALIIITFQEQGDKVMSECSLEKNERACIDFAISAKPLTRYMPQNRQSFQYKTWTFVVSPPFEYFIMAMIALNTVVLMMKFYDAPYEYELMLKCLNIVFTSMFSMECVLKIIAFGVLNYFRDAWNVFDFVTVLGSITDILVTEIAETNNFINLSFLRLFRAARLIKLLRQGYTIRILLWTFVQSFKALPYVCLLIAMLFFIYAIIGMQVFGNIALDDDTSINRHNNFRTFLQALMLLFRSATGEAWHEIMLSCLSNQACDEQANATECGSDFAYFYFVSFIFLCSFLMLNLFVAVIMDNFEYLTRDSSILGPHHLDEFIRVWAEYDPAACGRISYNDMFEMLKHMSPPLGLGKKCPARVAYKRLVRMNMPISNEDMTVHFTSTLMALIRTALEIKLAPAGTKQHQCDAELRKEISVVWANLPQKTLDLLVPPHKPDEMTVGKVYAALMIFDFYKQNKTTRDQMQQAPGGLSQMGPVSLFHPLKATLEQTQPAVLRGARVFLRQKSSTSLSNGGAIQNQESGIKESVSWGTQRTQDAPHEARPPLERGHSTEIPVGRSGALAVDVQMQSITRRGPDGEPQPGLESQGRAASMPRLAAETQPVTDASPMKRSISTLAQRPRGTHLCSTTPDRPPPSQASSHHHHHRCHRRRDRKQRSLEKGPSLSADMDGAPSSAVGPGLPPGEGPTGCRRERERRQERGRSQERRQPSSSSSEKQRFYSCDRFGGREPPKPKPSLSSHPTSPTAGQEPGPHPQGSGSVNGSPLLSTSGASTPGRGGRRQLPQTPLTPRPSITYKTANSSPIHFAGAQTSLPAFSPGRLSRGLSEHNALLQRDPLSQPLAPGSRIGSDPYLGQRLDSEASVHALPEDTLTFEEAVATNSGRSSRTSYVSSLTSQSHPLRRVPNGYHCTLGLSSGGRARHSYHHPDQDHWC
Sequence (P54284 whole entry partner): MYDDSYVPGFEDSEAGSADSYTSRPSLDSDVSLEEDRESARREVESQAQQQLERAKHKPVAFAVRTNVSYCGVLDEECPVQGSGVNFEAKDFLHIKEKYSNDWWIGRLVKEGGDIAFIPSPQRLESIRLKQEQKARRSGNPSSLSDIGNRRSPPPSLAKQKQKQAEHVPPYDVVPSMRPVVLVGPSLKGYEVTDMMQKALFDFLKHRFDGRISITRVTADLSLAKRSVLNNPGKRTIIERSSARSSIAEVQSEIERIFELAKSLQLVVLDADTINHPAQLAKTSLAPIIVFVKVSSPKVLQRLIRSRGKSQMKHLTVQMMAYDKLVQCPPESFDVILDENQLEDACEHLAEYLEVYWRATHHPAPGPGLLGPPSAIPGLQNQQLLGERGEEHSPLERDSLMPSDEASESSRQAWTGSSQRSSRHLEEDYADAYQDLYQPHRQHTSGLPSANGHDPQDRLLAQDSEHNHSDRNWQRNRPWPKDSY
Sequence (P54289 25-946 partner limits assumed): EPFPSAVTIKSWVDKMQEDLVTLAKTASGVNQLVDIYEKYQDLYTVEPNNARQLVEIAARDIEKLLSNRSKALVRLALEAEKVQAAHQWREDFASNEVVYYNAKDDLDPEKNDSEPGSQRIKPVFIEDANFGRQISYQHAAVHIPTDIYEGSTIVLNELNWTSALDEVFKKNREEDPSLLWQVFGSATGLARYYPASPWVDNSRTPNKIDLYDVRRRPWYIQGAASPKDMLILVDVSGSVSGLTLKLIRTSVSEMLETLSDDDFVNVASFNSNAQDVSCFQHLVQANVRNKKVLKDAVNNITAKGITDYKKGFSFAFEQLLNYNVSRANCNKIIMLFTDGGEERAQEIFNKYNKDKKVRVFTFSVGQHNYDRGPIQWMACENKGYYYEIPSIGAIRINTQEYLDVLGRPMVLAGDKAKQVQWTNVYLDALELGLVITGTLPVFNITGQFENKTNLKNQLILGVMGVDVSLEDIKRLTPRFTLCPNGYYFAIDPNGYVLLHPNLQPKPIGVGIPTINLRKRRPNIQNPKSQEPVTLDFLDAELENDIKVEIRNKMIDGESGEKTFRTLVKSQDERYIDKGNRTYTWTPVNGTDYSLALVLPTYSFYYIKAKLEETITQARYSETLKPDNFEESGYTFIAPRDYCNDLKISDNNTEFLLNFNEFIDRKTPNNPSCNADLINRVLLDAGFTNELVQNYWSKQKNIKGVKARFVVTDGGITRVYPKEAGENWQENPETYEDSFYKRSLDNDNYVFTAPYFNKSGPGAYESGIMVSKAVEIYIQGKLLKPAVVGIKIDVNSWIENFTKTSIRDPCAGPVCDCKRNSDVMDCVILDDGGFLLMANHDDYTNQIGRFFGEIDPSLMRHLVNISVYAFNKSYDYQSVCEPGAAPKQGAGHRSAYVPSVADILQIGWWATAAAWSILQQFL
Sequence (P54289 947-1103 partner limits assumed): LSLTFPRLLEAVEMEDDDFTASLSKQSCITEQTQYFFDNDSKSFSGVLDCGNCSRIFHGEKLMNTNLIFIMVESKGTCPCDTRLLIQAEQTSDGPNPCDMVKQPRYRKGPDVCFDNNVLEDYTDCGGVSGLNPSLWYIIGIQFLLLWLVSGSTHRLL
assay_protocol: FLIPR assay (TSA201 cells stably transfected with human Cav2.2 and human Kir2.3, FLUO-4 Ca2+ signal, KCl depolarization)
run_conditions: 70 mM KCl depolarization, average value
assay_endpoint: IC50 (µM)

Given the molecule `CC(C)(C)C(=O)N(Cc1ccc(N2CCOCC2)nc1)c1ccc(F)cc1` , what is its reported IC50?
13.8

`CN(C)CCCNc1nc(CN(C(=O)C(C)(C)C)c2ccc(F)cc2)cs1` , same question.
9

Repeat with `CCN(CC)c1cccc(CN(C(=O)[C@@H]2CCCN2)c2ccc(Cl)cc2)n1`
12.2

---

study_target: Cav2.2 (UniProt Q02294)
assay_protocol: Oocyte assay (Xenopus oocyte heterologous expression, current at fifth pulse P5)
run_conditions: Xenopus oocytes; fifth pulse (P5) of 5 Hz train, holding potential −100 mV
pIC50: −log10 of the molar value. Where a name gives a salt, the structure may show the parent alone.
assay_endpoint: pIC50

Using the record for `Cc1cc(F)ccc1N(Cc1ccc(N2CCN(C)CC2)nc1)C(=O)C(C)(C)C` , report its pIC50.
4.74

P: O=C(C1CCOC1)N(Cc1ccc(N2CCN(c3ccccn3)CC2)nc1)c1ccc(F)cc1 (stereo not drawn)
Q: CCN(CC)c1ccc(CN(C(=O)C(C)(C)C)c2ccc(F)cc2)cn1 [Compound 3, trifluoroacetate]
Would you let me know which has the greater pIC50 value, P or Q ? Return value: the label identifying the chosen record.
Q
(Q: 4.92, P: 4.63)

A: CN(CCOc1ccccn1)c1ccc(CN(C(=O)C(C)(C)C)c2ccc(F)cc2)cn1
B: CC(C)(C)C(=O)N(Cc1ccc(N2CCN(c3ccccn3)CC2)nc1)c1ccc(F)cc1
C: CCN(CC)c1ccc(CN(C(=O)C2CCOC2)c2ccc(F)cc2)cn1 (stereo not drawn)
D: CC(C)(C)C(=O)N(Cc1ccc(N2CCC(N3CCCC3)CC2)nc1)c1ccc(F)cc1
Order the records, beginning with the lowest pIC50 and ending with the highest. I'd appreciate it if you listed the labels in the requested order.
C, D, A, B

A: CN(CCc1cccnc1)c1ccc(CN(C(=O)C(C)(C)C)c2ccc(F)cc2)cn1
B: CCN(CC)c1ncc(CN(C(=O)C(C)(C)C)c2ccc(F)cc2)cn1
Exercise: compare A and B ; which one has the greater pIC50? Which one? Tell me its label.
A
(A: 5.28, B: 4.81)

1: CN(CCN1CCOCC1)c1ccc(CN(C(=O)C(C)(C)C)c2ccc(F)cc2)cn1
2: CCN(CC)c1ccc(CN(C(=O)C(C)(C)CC)c2ccc(F)cc2)cn1
3: Cc1cc(C)cc(N(Cc2ccc(N3CCN(C)CC3)nc2)C(=O)C(C)(C)C)c1
4: CCC(C)(C)C(=O)N(Cc1ccc(N2CCN(C)CC2)nc1)c1ccccc1C(C)C
Please list these in order of increasing pIC50. Thank you! In your reply, arrange the labels in the requested order.
1, 3, 4, 2

1: CC(C)(C)C(=O)N(Cc1ccc(N2CCCCC2)nc1)c1ccc(F)cc1
2: CN1CCN(c2ccc(CN(C(=O)NC(C)(C)C)c3ccc(F)cc3)cn2)CC1 [Compound 11, hydrochloride]
Between 1 and 2 , which one shows the smaller pIC50 number? Label of pick, please.
2

A: CCN(c1nc(CN(C(=O)C(C)(C)C)c2ccc(F)cc2)cs1)C1CC1
B: CCC(C)(C)C(=O)N(Cc1ccc(N2CCN(c3ccccn3)CC2)nc1)c1ccc(F)cc1
C: CN(C)c1ccc(N(Cc2csc(N(C)c3ccc(F)cc3)n2)C(=O)C(C)(C)C)cc1
Order these by pIC50, descending, and give the full ranking. Answer by listing the labels in the requested order.
C, A, B

P: CCN(c1ccc(CN(C(=O)C(C)(C)C)c2ccc(F)cc2)cn1)C1CC1
Q: CN(C)c1ccc(N(Cc2cnc(N3CCCCC3)nc2)C(=O)C(C)(C)C)cc1
Lab note: check whether P or Q has the lower measured pIC50. Reply with the label of the item you choose.
Q
(Q: 4.79, P: 5.10)

I: CN(CCc1ccccn1)c1ccc(CN(C(=O)C(C)(C)C)c2ccc(F)cc2)cn1
II: CC(C)c1ccccc1N(Cc1ccc(N2CCN(C)CC2)nc1)C(=O)C(C)(C)C
Of the two listed items, I and II , which carries the larger pIC50 figure? Give the label under which the chosen entry appears.
I
(I: 5.15, II: 4.63)
